Reference for the values: ChEMBL document CHEMBL3785058

- Assay Method Text: AUC(0 to infinity) in Sprague-Dawley rat at 5 mg/kg, po
- Assay type: ADME, organism-based
- Design: dose 5 mg/kg, route oral, time infinity
- Protocol Conditions: in vivo

Test Smiles: CC(=O)N1CCN([C@H]2CC[C@H](c3cc(OC4CC4)c(Nc4ncc(Cl)c(Nc5cn(C)nc5S(=O)(=O)C(C)C)n4)cc3C)CC2)CC1
AUC(0-inf): 3200 ng·h/mL

====

- Assay Method Text: Cmax in Balb/c nude mouse at 5 mg/kg, po
- Type: ADME, organism-based
- Design: dose 5 mg/kg, route oral
- Protocol Conditions: in vivo
Measured Endpoint: Cmax (ng/mL)

Test Smiles: CC(=O)N1CCN([C@H]2CC[C@H](c3cc(OC4CC4)c(Nc4ncc(Cl)c(Nc5cn(C)nc5S(=O)(=O)C(C)C)n4)cc3C)CC2)CC1
Measured Number: 446

====

- Assay Method Text: Cmax in Sprague-Dawley rat at 5 mg/kg, po
- Assay type: ADME, organism-based
- Parameters: dose 5 mg/kg, route oral
- Protocol Conditions: in vivo
Measured Endpoint: Cmax

Test Smiles: CC(=O)N1CCN([C@H]2CC[C@H](c3cc(OC4CC4)c(Nc4ncc(Cl)c(Nc5cn(C)nc5S(=O)(=O)C(C)C)n4)cc3C)CC2)CC1
Measured Endpoint: Cmax
Result: 220 ng/mL

====

- Assay Method Text: Volume of distribution in Sprague-Dawley rat at 1 mg/kg, iv
- Format: ADME, organism-based
- Protocol Conditions: in vivo

Test Smiles: CC(=O)N1CCN([C@H]2CC[C@H](c3cc(OC4CC4)c(Nc4ncc(Cl)c(Nc5cn(C)nc5S(=O)(=O)C(C)C)n4)cc3C)CC2)CC1
Vd [L/kg]: 8.5

====

- Assay Method Text: Oral bioavailability in Balb/c nude mouse at 5 mg/kg
- Format: ADME, organism-based
- Protocol Conditions: in vivo
Measured Endpoint: bioavailability (%)

Test Smiles: CC(=O)N1CCN([C@H]2CC[C@H](c3cc(OC4CC4)c(Nc4ncc(Cl)c(Nc5cn(C)nc5S(=O)(=O)C(C)C)n4)cc3C)CC2)CC1
Measured Endpoint: bioavailability
Unit: %
Measured Number: 76.5

====

- Assay Method Text: AUC(0 to infinity) in Beagle dog at 3 mg/kg, po
- Format: ADME, organism-based, Canis lupus familiaris
- Parameters: dose 3 mg/kg, route oral, time infinity
- Protocol Conditions: in vivo

Test Smiles: CC(=O)N1CCN([C@H]2CC[C@H](c3cc(OC4CC4)c(Nc4ncc(Cl)c(Nc5cn(C)nc5S(=O)(=O)C(C)C)n4)cc3C)CC2)CC1
Unit: ng·h/mL
AUC(0-inf): 3340

====

- Assay Method Text: Tmax in Balb/c nude mouse at 5 mg/kg, po
- Format: ADME, organism-based
- Protocol Conditions: in vivo

Test Smiles: CC(=O)N1CCN([C@H]2CC[C@H](c3cc(OC4CC4)c(Nc4ncc(Cl)c(Nc5cn(C)nc5S(=O)(=O)C(C)C)n4)cc3C)CC2)CC1
Tmax: 30 min

====

- Assay Method Text: Half life in Sprague-Dawley rat at 1 mg/kg, iv
- Assay type: ADME, organism-based
- Protocol Conditions: in vivo

Test Smiles: CC(=O)N1CCN([C@H]2CC[C@H](c3cc(OC4CC4)c(Nc4ncc(Cl)c(Nc5cn(C)nc5S(=O)(=O)C(C)C)n4)cc3C)CC2)CC1
half-life, h: 4.5
